tested on: OE33 cells; assay: Inhibitory activity on cancer cell growth (CCK-8, 72 h), OE33 cells; format: cell-based; settings: Homo sapiens, OE33, 72 h, human esophageal cancer cells OE33, 72 h incubation, numeric value or bound
pIC50: −log10 of the molar value.
Quantity kind: pIC50

Q: Give the measured pIC50 of CCN(C)Cc1c(O)ccc2nc3c(cc12)Cn1c-3cc2c(c1=O)COC(=O)[C@]2(O)CC [Compound 19] .
Ans: > 7.00
